ASSAY INFO: yeast display, Sf9 membrane polyspecificity reagent, FACS + sequencing; frameworks hold sequencing errors
READOUT NAME: polyreactivity (PSR sort gate)

Some solved cases for reference:
## Input Assign polyreactivity (PSR sort gate) to the following record: QVQLVESGGGLDQAGGSLPLSCAASGSIFYVYTMGTYRQAPGKERELVAAISFRSGSTYYADSVKGRFTISRDNAKNTVYLPMNSLKPEDTAVYYCAKPIPRGRNQLFNYWGQGTEVTVSS
## Output high polyreactivity

## Input Assign polyreactivity (PSR sort gate) to the following record: QVQLVESGGGLVQAGGSLRLSCAASGRTFWNYAMGWYRQAPGKERELVAAIRSSGGRTYYADSVKGRFTISRDNAKNTVYLQMNSLKPEDTAVYYCAAYGFIEGIGTYDYWGQGTQVTVSS
## Output high polyreactivity

## Input Assign polyreactivity (PSR sort gate) to the following record: QVQLVESGGGLVQAGGSLRLSCAASGSTFRYNAMGWYRQAPGKERELVAAITSSGSRTYYADSVKGRFTISRDNAKNTVYFQMISLKPEDTAVYYCAAYGYYTKVTKYDYWGQGTQVTVSS
## Output high polyreactivity

## Input Assign polyreactivity (PSR sort gate) to the following record: QVHLVESGGGLVQAGGSLRLSCAASGITFSPYAMGWSRQAPGKERELVAAISSGSSTKYADSVKGRFTISRDNAKNTVYLQMNSLKPEDTAVYYCAARWFDGYAAYGYWGQGTEVTVSS
## Output high polyreactivity

## Input Assign polyreactivity (PSR sort gate) to the following record: QVQLVESGGGLVQAGGSLRLSCAASGSIFQIVYAMGWYRQAPGKERELVAAISRGGSTYYADSVKGRFTISRDNAKNTVYLQMNSLKPEDTAVYYCAADIVELSPRGVYHFDYWGQGTQVTVSS
## Output high polyreactivity

Next:
## Input Assign polyreactivity (PSR sort gate) to the following record: QVQLVESGVGLVQAGGSLRISCAASGFIFVTNVMGWYRQAPGKEREFVAAITARGGTTYYADSVKGRFTISRDNAKNTVYLQMNRLKPEDTAVYYCAAGYGVIKSLSHFYYWGQGTQVTVSS
## Output low polyreactivity

## Input Assign polyreactivity (PSR sort gate) to the following record: QVQLVESGGGLVQAGGSLRLSCAASGFTFYPYAMGWYRQAPGKERELVASITSAGGTNYADSVKGRFTISRDNAKNTVYLQMNSLKPEDTAVYYCAAKYRSRGPDYYFKSDYWGQGTQVTVSS
## Output low polyreactivity

## Input Assign polyreactivity (PSR sort gate) to the following record: QVQLVESGGGLVQAGGSLRLSCAASGSIFGYYAMGWYRQAPGKERELVAVITRDASTYYADSVKGRFTISRDNAKNTVDLQMNSLKPEDTAVYYCAADRWWRRSWVKLDYWGHGTQVTVSS
## Output low polyreactivity

## Input Assign polyreactivity (PSR sort gate) to the following record: QVQLVESGGGLVQAGGSLRLSCAASGRIFDDYDMGWYRQAPGKEREFVAAISTSGGSTYYADSVKGRFTISRDNAKNTVYLQMNSLKPEDTAVYYCATREYRYTGRQSRRYYWGQGTQVTVSS
## Output high polyreactivity

## Input Assign polyreactivity (PSR sort gate) to the following record: QVQLVESGGGLVQAGGSLRLSCAASGRTFGQNALGWYRQAPGKERELVASIRSGGITDYADSVKGRFTISRDNAKNTVYLQMNSLKPEDTAVYYCNAEGVWWSTRYDSWGQGTQVTVSS
## Output low polyreactivity

## Input Assign polyreactivity (PSR sort gate) to the following record: QVQLVESGGGLVQAGGSLRLSCAASGSTFTPYAMGWYRQAPGKERELVAAINGGGTRTYYADSVKGRFTISRDNAKNTVYLQMNSLKPEDTAVYYCAARTSTSRSYPYNYWGQGTQVTVSS
## Output high polyreactivity

## Input Assign polyreactivity (PSR sort gate) to the following record: QVQLVESGGGLVQAGGSLRLSCAASGRTFFWYVMGWYRQAPGKERELVATISYGGITYYADSVKGRFTISRDNAKNTVYLQMNSLKPEETALYYCAAKPSRSLYYYWGQGTQVTVSS
## Output high polyreactivity

## Input Assign polyreactivity (PSR sort gate) to the following record: QVQLVESGGGLVQAGGSLRLSCAASGSTFDGNAMGWYRQAPGKERELDAAISDGDSTTYADSVKGRFTISRDNAKNTVYLQMNSLKPEDTAVYYCNADVARSKSQASAYDYWGQVTQVTVSS
## Output low polyreactivity
